Overview of reported remaining activity at 0.2 µM across a group of molecules:
tested-system: Oregon Green labeled Aβ(1-42) (Homo sapiens, UniProt P05067)
Construct: DMSO-stock solutions of Oregon Green labeled Aβ(1-42) 1:1 with deionized water
Sequence (P05067 672-713 limits assumed): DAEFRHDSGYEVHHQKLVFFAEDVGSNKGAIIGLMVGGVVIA
assay: FCS-assay with 5 nM Oregon Green labeled Aβ-peptide (disaggregation of preformed aggregates)
Assay type: biochemical
test-parameters: read-out: Percentage of the “peaks × height“ value compared to the control reaction without added ligand
Counter-ions that a name gives are not always drawn.
Kindly answer with a numeric value in %, unit omitted.

Some molecules with recorded remaining activity at 0.2 µM:
# molecule, scale-unit, remaining activity at 0.2 µM
records = [
    ("Brc1ccc(-c2cc(NCCNc3cc(-c4ccc(Br)cc4)[nH]n3)n[nH]2)cc1 [Compound 1u, bishydrochloride]", "%", 59.2),
    ("Clc1ccc(-c2cc(NCCNc3cc(-c4ccc(Cl)cc4)[nH]n3)n[nH]2)cc1 [Compound 1f, bishydrochloride]", "%", 101),
    ("Fc1ccc(-c2cc(NCCNc3cc(-c4ccc(F)cc4)[nH]n3)n[nH]2)cc1 [Compound 1ak, bishydrochloride]", "%", 44.8),
    ("c1ccc(-c2cc(NCCNc3cc(-c4ccccn4)[nH]n3)n[nH]2)nc1", "%", 48),
    ("Cc1ccc(-c2cc(NCCNc3cc(-c4ccc(Cl)cc4)[nH]n3)n[nH]2)cc1 [Compound 1ae, bishydrochloride]", "%", 53.1),
]

// lookup remaining activity at 0.2 µM for Cc1ccc(-c2cc(NCCNc3cc(-c4ccc(C)cc4)[nH]n3)n[nH]2)cc1 [Compound 1d, bishydrochloride]
83.1

Check Clc1ccc(-c2cc(NCCNc3cc(-c4cccs4)[nH]n3)n[nH]2)cc1 [Compound 1ah, bishydrochloride] too.
69.3

---

tested-system: preformed Aβ1-42 fibers (Homo sapiens)
Construct: Aβ1-42 lyophilized powder (Bachem) was reconstituted in hexafluoroisopropanol (HFIP) to 1 mM; purchased Bachem
assay: Thioflavin T spectrofluorescence assay: disaggregation of preformed Aβ1-42 fibers
Assay type: biochemical
test-parameters: Table 5; 330 μM small molecule, 10:1 molar ratio to pre-aggregated Aβ1-42, additional 24 h at 37° C.; mean ± SD of two independent experiments
Where a name gives a salt, the structure may show the parent alone.
endpoint: % disaggregation (%)
Please state the figure in %; there is no need to write the unit.

Completed entries (count: 3):
# molecule, tested-system, % disaggregation (%)
records = [
    ("Cc1ccc(-c2cc(NCCNc3cc(-c4cccs4)[nH]n3)n[nH]2)cc1 [Compound 1ab, bishydrochloride]", "preformed Aβ1-42 fibers (Homo sapiens)", 78.0),
    ("Clc1ccc(-c2cc(NCCNc3cc(-c4cccs4)[nH]n3)n[nH]2)cc1 [Compound 1ah, bishydrochloride]", "preformed Aβ1-42 fibers (Homo sapiens)", 88.8),
    ("Cc1ccc(-c2cc(NCCNc3cc(-c4ccc(Cl)cc4)[nH]n3)n[nH]2)cc1 [Compound 1ae, bishydrochloride]", "preformed Aβ1-42 fibers (Homo sapiens)", 76.0),
]

Lab note: next molecule to report on.
Please look up its % disaggregation: Brc1ccc(-c2cc(NCCNc3cc(-c4ccc(Br)cc4)[nH]n3)n[nH]2)cc1 [Compound 1u, bishydrochloride]
78.8

---

tested-system: Aβ1-42 (Homo sapiens)
Construct: Aβ1-42 lyophilized powder (Bachem) was reconstituted in hexafluoroisopropanol (HFIP) to 1 mM; purchased Bachem
assay: Thioflavin T spectrofluorescence assay: inhibition of Aβ1-42 aggregation
Type: biochemical
test-parameters: Table 3; 10:1 small molecule to Aβ1-42 molar ratio, 24 h at 37° C.; mean ± SD of two independent experiments; read-out: % Inhibition
Structures can show the parent of a compound that is named as a salt.
Criterion: inhibition at 330 µM meeting or surpassing 20%. Met: yes. Not met: no.

# compound, class
measured = [
    ("Cc1ccc(-c2cc(NCC(=O)Nc3cc(-c4ccc(Cl)cc4)[nH]n3)n[nH]2)cc1", "no"),
    ("Cc1ccc(-c2cc(NCC(=O)Nc3cc(C)[nH]n3)n[nH]2)cc1", "yes"),
    ("Cc1cc(NCC(=O)Nc2cc(C)[nH]n2)n[nH]1", "no"),
    ("Cc1ccc(-c2cc(NCC(=O)Nc3cc(-c4cccs4)[nH]n3)n[nH]2)cc1", "yes"),
    ("Cc1ccc(-c2cc(NCC(=O)Nc3cc(-c4ccc(C)cc4)[nH]n3)n[nH]2)cc1", "yes"),
    ("Cc1ccc(-c2cc(NC(=O)CNc3cc(-c4cccs4)[nH]n3)n[nH]2)cc1", "yes"),
    ("O=C(CNc1cc(-c2cccs2)[nH]n1)Nc1cc(-c2ccc(Cl)cc2)[nH]n1", "yes"),
    ("O=C(CNc1cc(-c2ccc(Cl)cc2)[nH]n1)Nc1cc(-c2cccs2)[nH]n1", "yes"),
    ("Cc1ccc(-c2cc(NC(=O)CNc3cc(-c4ccc(Cl)cc4)[nH]n3)n[nH]2)cc1", "yes"),
]

Now consider the entry below.
For this compound, is measured inhibition at 330 µM 20% or higher? c1cc(NCCNc2cc[nH]n2)n[nH]1 [Compound 1b, bishydrochloride]
no
